Below, each entry is listed alongside its reported pKd.
measured.target: ERα DBD-Ext (Homo sapiens, UniProt P03372)
run.description: fluorescence anisotropy
In textbook form, pKd equals minus log to base ten of the concentration in mol/L.

INSERT INTO measurements (binder, test_readout, observed_value) VALUES
  ('rERE duplex (dsRNA) RNA 1: CAGGUCAGAGUGACCUGAUU RNA 2: AAUCAGGUCACUCUGACCUG', 'pKd', 5.96);

Field: next binder
Summary for this binder, CAGGUCAGAGUGACCUGAUUCGUCAGGUCACUCUGACCUG (structured_RNA) [rERE] : pKd is 6.89
